# assay remarks: Human HepG2 cell viability assay in 384 well format
# Assay type: toxicity, cell-based
# Parameters: dose 125 nL, time 70.5 hour; concentration not given beside the values
# condition context: HepG2 cells, read-out: Inhibition
measured endpoint: cytotoxicity at 70.5 h (%)
One number for each entry, in %.

{"compound": "N#Cc1ccc2c(c1)CN(C(=O)C1CC=CC1)C2c1cnco1 (configuration not stated)", "cytotoxicity at 70.5 h (%)": -6.37}
{"compound": "CO[C@@H]1CO[C@@]2(CCCN(C(=O)C3CC=CC3)C2)C1", "cytotoxicity at 70.5 h (%)": -1.96}
{"compound": "Cn1nc2c(cc1=O)CN(Cc1nc(-c3ccco3)no1)CC2", "cytotoxicity at 70.5 h (%)": -7.45}
{"compound": "CO[C@H]1CO[C@@]2(CCCN(C(=O)C3=CCCCC3)C2)C1", "cytotoxicity at 70.5 h (%)": -2.72}
{"compound": "COCC(=O)N1CCc2cccc(S(=O)(=O)N3CCOCC3)c2C1", "cytotoxicity at 70.5 h (%)": -6.37}
{"compound": "CCOc1cc2c(cc1CCC(=O)O)CCC2", "cytotoxicity at 70.5 h (%)": 7.85}

For every item below, please supply its cytotoxicity at 70.5 h.
1. Cc1nc(CN(C)C(=O)Nc2cccc(COC(C)C)c2)no1
2. CN(C)C1CCN(C(=O)NCc2ccccc2Cn2cncn2)CC1
3. CC(O)CC(C)(C)CNC(=O)NCc1cccc(-n2ccnc2)c1 (configuration not stated)
4. Cc1ccc(-c2nc(CN3CCc4c(ncn4C)C3)cs2)o1
5. COC(=O)c1cccc(S(=O)(=O)NC(=O)COC2CCCC2)c1

Ans:
-1.56
-11.6
-7.65
36.9
-11.9

Q: Answer with reported cytotoxicity at 70.5 h of CCN(CC(=O)NC(C)C)S(=O)(=O)N1CCC(C)C1 (configuration not stated)
Ans: -6.99

----------
# assay remarks: Human HepG2 cell viability assay in 384 well format
# Format: toxicity, cell-based
# Parameters: dose 125 nL, time 70.5 hour; concentration not given beside the values
# condition context: HepG2 cells, read-out: Inhibition
Answer each item with its documented cytotoxicity at 70.5 h.
One number for each entry, in %.

Known cytotoxicity at 70.5 h results, listed for orientation:
{"compound": "Cc1ccc(F)cc1-n1c(CCCN2CCOCC2)n[nH]c1=O", "unit string": "%", "obs value": -7.44}
{"compound": "CCc1nc2c(s1)C(N(C)C(=O)c1cc[nH]n1)CCC2 (stereo not drawn)", "unit string": "%", "obs value": -10.2}
{"compound": "Cc1noc(C)c1C(=O)N1CCCC(c2c(C)c(=O)nc3n2CCC3)C1 (stereo not drawn)", "unit string": "%", "obs value": -9.85}
{"compound": "Cc1cc(NC(=O)C2CCN(c3ncccc3C#N)CC2)no1", "unit string": "%", "obs value": 3.46}

For every record below, what is its cytotoxicity at 70.5 h?
1. CCn1cc(-c2cc(-c3cc(CN(C)C)cs3)nc(N)c2C#N)c(C)n1
2. O=C(N1CCOCC1)N1CCOC[C@H](Oc2ccc(C(F)(F)F)cc2)C1
3. CC(C1CCN(Cc2c(Cl)cncc2Cl)CC1)N1CCOCC1 (stereo not drawn)
4. N#Cc1c2n(c3c(N)ncnc13)CCCCC2
5. CCC(C)NC(=O)CS(=O)(=O)Cc1cc(Cl)c2c(c1)OCCCO2 (stereo not drawn)
6. COc1cc(CN(Cc2ccccn2)CC(C)C)cc2c1OCO2
7. Cc1cccnc1CC(C)Nc1nc(N)nc2c1CCNC2 (stereo not drawn)

Ans:
-6.34
-5.44
-5.73
16.8
-5.29
-0.968
2.93

Consider the following items and state reported cytotoxicity at 70.5 h for each.
1. Cc1ccc(-c2nnn(CCN3C(=O)CCC3=O)n2)cc1
2. CN(C)CCN1CCO[C@H]2CN(Cc3cnn(C)c3)C[C@H]21
3. COC(=O)c1ccc(CNC(C)(C)c2ccccc2OC)o1
4. CCS(=O)(=O)NC1CCCN(Cc2ccn(C)c(=O)c2)C1 (stereo not drawn)
5. Cn1nc2c(cc1=O)CN(Cc1nc(C3CC3)no1)CC2
6. CNC(=O)C1CCCCN1C(=O)Cc1csc(-c2ccc(C)o2)n1 (stereo not drawn)
7. CCc1cc(=O)[nH]c2nnc(SCC(=O)OC)n12

Ans:
-3.33
-7.82
-6.94
-9.02
-8.63
-11.8
9.93

// for each compound in input: emit cytotoxicity at 70.5 h
1. CCC(=O)N1CCCCC1c1nc(N(C)C)ncc1-c1cc(C)no1 (stereo not drawn)
2. Cc1nnc(SCCCNC(=O)Cc2ccc3c(c2)OCO3)s1
3. CN(C(=O)c1ccccc1N(C)S(C)(=O)=O)c1ccc(C(C)(C)C)cc1
4. O=C([C@H]1CN(CCc2ccccc2)C[C@H]2OCC[C@@H]12)N1CCCO1
5. CC(NC(=O)c1ccc2c(c1)COC2)c1cccc(N2CCOC2=O)c1 (stereo not drawn)

Ans:
1. 1.06
2. 11.5
3. 5.15
4. 6.27
5. -0.257

----------
# assay remarks: Human HepG2 cell viability assay in 384 well format
# Assay type: toxicity, cell-based
# Design: dose 125 nL, time 70.5 hour; concentration not given beside the values
# condition context: HepG2 cells, read-out: Inhibition
Consider the following compounds; for each one, report its cytotoxicity at 70.5 h.
Answers are plain numbers, in %.

Examples from the recorded data:
{"compound": "CS(=O)(=O)NCCN(CCCO)C1CCc2ccccc21 (stereo unspecified)", "unit string": "%", "cytotoxicity at 70.5 h": -97.1}
{"compound": "Cc1nc(C)n(CC2CCCCN2CC(=O)NCc2ccccn2)n1 (stereo unspecified)", "unit string": "%", "cytotoxicity at 70.5 h": 2.56}
{"compound": "CN(C)c1ccc(C(=O)N2CCN(C(=O)N3CCCCC3)CC2)nn1", "unit string": "%", "cytotoxicity at 70.5 h": -18.5}
{"compound": "COCCN1CCO[C@@H]2CN(C(=O)COc3ccc(C)cc3)C[C@@H]2C1", "unit string": "%", "cytotoxicity at 70.5 h": -8.74}
{"compound": "CCNC(=O)[C@@H]1CCCN1[C@@H](C(=O)NC)c1ccccc1OC", "unit string": "%", "cytotoxicity at 70.5 h": -8.29}
{"compound": "CC(C)n1ncc2c1NC(=O)CSC2C(C)(C)C (stereo unspecified)", "unit string": "%", "cytotoxicity at 70.5 h": -2.79}
{"compound": "CCOc1ccc(CCCC(=O)N2CCC(C(=O)NC)C2)cc1C (stereo unspecified)", "unit string": "%", "cytotoxicity at 70.5 h": -8.84}
{"compound": "COC(=O)NCC(=O)N(C)CC1Cc2ccccc2CN1C (stereo unspecified)", "unit string": "%", "cytotoxicity at 70.5 h": -2.82}

Hi, could you look up cytotoxicity at 70.5 h for each item in my list?
1. O=C(c1ccncc1)N1CCc2[nH]nc(Nc3ccccc3)c2C1
2. Cc1ncsc1-c1nnc(C2CCN(Cc3ccccc3F)CC2)o1
3. Cc1nn(C)cc1CN1CCC(C2Nc3ccccc3S(=O)(=O)N2)CC1 (stereo unspecified)

Ans:
21.7
-0.587
-12.8

----------
Hi there, I'd appreciate the recorded cytotoxicity at 70.5 h for every entry that follows.
# assay remarks: Human HepG2 cell viability assay in 384 well format
# Assay type: toxicity, cell-based
# Design: dose 125 nL, time 70.5 hour; concentration not given beside the values
# condition context: HepG2 cells, read-out: Inhibition

Previously resolved entries follow.
{"molecule": "CC(=O)N1CCCC1c1ccc(CN2CCOCC2)cn1 (stereo unspecified)", "cytotoxicity at 70.5 h": "16.7%"}
{"molecule": "CS(=O)(=O)CCn1ccc(NC(=O)Cc2ccccc2Cl)n1", "cytotoxicity at 70.5 h": "-1.99%"}
{"molecule": "CCC1C(=O)NCCN1c1ccnc(C(C)(C)C)n1 (stereo unspecified)", "cytotoxicity at 70.5 h": "-23.9%"}
{"molecule": "CCn1nc(C)c(NC(=O)CN2CCN(C(C)=O)CC2)c1C", "cytotoxicity at 70.5 h": "-10.9%"}
{"molecule": "COCC1CCCN(C(=O)c2cc(Cn3ccc4ccccc43)[nH]n2)C1 (stereo unspecified)", "cytotoxicity at 70.5 h": "-6.02%"}
{"molecule": "COC(=O)N1CCCCC1C(=O)N1CCCN(c2ccnc(C)c2)CC1 (stereo unspecified)", "cytotoxicity at 70.5 h": "-7.79%"}
{"molecule": "COCCNC(=O)N1CCN(C(=O)c2nsc3ccc(C)cc23)CC1", "cytotoxicity at 70.5 h": "-17.5%"}
{"molecule": "O=C(Nc1cc(C(F)(F)F)c[nH]c1=O)C1CCCNC1 (stereo unspecified)", "cytotoxicity at 70.5 h": "-8%"}
{"molecule": "CN(C)CCNC(=O)c1cc(-c2cnc(N3CCCC3)nc2)cn1C", "cytotoxicity at 70.5 h": "21.5%"}
{"molecule": "CN(C)CCO[C@H]1CN(Cc2ccco2)[C@@H]2COC[C@H]12", "cytotoxicity at 70.5 h": "-3.7%"}

Q: Using the record for Cc1nccn1CCC(=O)N1CCC2(CCC(=O)N(CC3CC3)C2)CC1 , state its measured cytotoxicity at 70.5 h.
Ans: 2.21%
